The values you see were collected from the supplement of paper PMC10567573.

B1: DCAF4 (parent)
chain: PGIDRPGMLCSFRIPGAWSCAWSL

# Variants of: B1
# protocol_details: protein stability index of a GFP-peptide fusion (GPS, HEK-293T) (PSI 1-6); higher = more stable;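 further: lentivirally expressed fusions sorted by FACS into six bins by GFP to DsRed ratio, PSI derived from sequencing read proportions per bin multiplied by bin number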
# stated_conditions: c terminus: a fixed tail appended
Each entry falls into one class according to its protein stability index; the ranges are A (below 2), B (2 to below 3), C (3 or more)

Into which category would you place `S19V` ? A

Hi, small favor: classify `L9F` by its protein stability index when you get a moment. B

Using the reported protein stability index, which band applies to `A17Q` ? B

Please classify: `W18Q` B

Band assignment needed for `G2F` please. A

Into which category would you place `I14R` ? C

Given `G7H` , name the class its protein stability index places it in. B

Form: Item = `L9T` ; Class = ? A

State the class of the variant shown: `G2Q` B

Tag the class for `P6F` C

Band assignment needed for `W18E` please. A

In plain terms, what class is `S23D` ? B

Quick check: band for `W18R` C

Category of `I3Q` : C

For the record `C10E` , report the class its protein stability index corresponds to. B

For the record `C20M` , report the class its protein stability index corresponds to. C

For this variant, which bin applies? `C10D` B

Could you tell me which band `I3L` belongs to? C

Just checking, what class would you give `P6G` here? C

Please indicate the class for `S23T` based on its protein stability index. B

Which protein stability index category applies to `R5G` here? B

Hello team, could you let me know which band the following variant falls into: `G2H` C

Into which category would you place `S11K` ? B

Which protein stability index band matches `C20D` ? B

Could you place `W22V` in its proper category? Many thanks. A

Form field 'band' for `R13F` B

# bin label for `C20H` B

Lab log: `G16K` — assign protein stability index category C

Which of the defined bands does the recorded protein stability index of `R5Y` sit within? B

Pick a category. Item: `P6M` C

Please indicate the class for `G16P` based on its protein stability index. C

Please indicate the class for `W22R` based on its protein stability index. B

Any idea which band `P1D` is in? B

Band of `S11T` ? A

In plain terms, what class is `I14N` ? A

Exercise: read the entry `A21N` and state which class it falls under. B

Which bin should I file `S19E` under? B

Which bin should I file `P15E` under? C
